Parameter TGI: see the listing below.
- Test system: UACC-62 melanoma
- experiment_notes: NCI tumour cell line growth inhibition, 48 h
measured_endpoint: TGI

CCn1c2ccccc2c2cc(NC(=O)Nc3ccc([N+](=O)[O-])cc3C)ccc21 ... > 100 µM
O=C(CSc1nc2ccccc2nc1-c1ccccc1)Nc1ccc(F)cc1 ... > 100 µM
CN(CC(=O)O)c1ncc2c(n1)CCCC2 ... > 100 µM
COc1ccc(-c2nn(-c3ccc(NC(=O)c4ccc(Cl)c(Cl)c4)cc3)cc2-c2ccncc2)cc1Cl ... > 38.7 µM
Cn1c(=O)c(-c2ccccc2)c(N=[N+]=[N-])c2ccccc21 ... > 100 µM
CC(C)C(=O)OCC1OC(n2c(Br)nc3c(=O)[nH]c(N)nc32)C(OC(=O)C(C)C)C1OC(=O)C(C)C (centres undefined) ... > 100 µM
CN(C)C(n1cc2c(c1)-c1ccc(Cl)cc1C(c1ccccc1F)=NC2)n1cc2c(c1)-c1ccc(Cl)cc1C(c1ccccc1F)=NC2 ... > 100 µM
OCC1OC(c2nc(C3=NCCCN3)cs2)C(O)C1O (centres undefined) ... > 100 µM
O=c1[nH]nc(Cc2ccccc2)n1/N=C/c1ccccc1O ... > 100 µM
COc1ccc(-[n+]2nc(S(=O)(=O)O)c(/C=C/c3ccc(N(C)C)cc3)cc2C#N)cc1 ... > 100 µM
CC(O)C1(CNc2cc(Cl)nc(N)n2)CCC1 (centres undefined) ... > 100 µM
O=C(O)Cc1cc(Cl)ccc1O ... > 100 µM
CN(C)CCCC12CCCCC1=Nc1ccccc12 (centres undefined) ... > 100 µM
CN1CCOC(c2ccccc2)O1 (centres undefined) ... > 100 µM
O=C(O)C(NCc1ccccc1)C(NCc1ccccc1)C(=O)O (centres undefined) ... > 100 µM
CC(=O)Oc1ccc2c(C)cc(=O)oc2c1OC(C)=O ... > 100 µM
COc1ccc(/C=C2/N=C(c3ccccc3)N(c3c(C)n(C)n(-c4ccccc4)c3=O)C2=O)cc1OC ... > 100 µM
CC1(C)N=C(N)N=C(N)N1c1ccc(CCc2ccccc2)cc1 ... > 100 µM
CCOC(=O)C(=[N+]=[N-])[Si](C)(C)C ... > 100 µM

* * *

- Tested on: NCI-H23 lung
- experiment_notes: NCI tumour cell line growth inhibition, 48 h
measured_endpoint: TGI

CC12CC(c3ccccc3O1)C(C(=O)Nc1ccc(Cl)cc1Cl)C(=O)N2 (stereo not drawn) ... > 100 µM
COc1ccc(/C=C2/N=C(c3ccccc3)N(c3c(C)n(C)n(-c4ccccc4)c3=O)C2=O)cc1OC ... > 100 µM
CC1(C)N=C(N)N=C(N)N1c1ccc(CCc2ccccc2)cc1 ... > 100 µM

* * *

- System: OVCAR-4 ovarian
- experiment_notes: NCI tumour cell line growth inhibition, 48 h
Where a SMILES comes first, the peptide text is derived from it. The star is where a group is joined. Cbz = O=C(OCc1ccccc1)*; CH2Cl = ClC*
measured_endpoint: TGI

Cn1cc(C2=C(c3cn(CCCCO)c4ccccc34)C(=O)NC2=O)c2ccccc21 ... > 25 µM
O=c1ccn([C@H]2CSC[C@@H](CO)C2)c(=O)[nH]1 ... > 100 µM
CN1C(=O)N(C)C2C1NN=c1s/c(=C\c3ccc(Cl)cc3Cl)c(=O)n12 (configuration not stated) ... > 78.9 µM
CC(C)CC(NC(=O)OCc1ccccc1)C(=O)NC(Cc1ccccc1)C(=O)CCl (stereo not drawn) (Cbz-Leu-Phe-CH2Cl; configuration not given here) ... 4.69 µM
CCOc1ccccc1NC(=O)C(=O)CC(=O)c1sc(Nc2nnc(-c3ccc(Cl)c(Cl)c3)o2)nc1C ... > 100 µM
CCCN1C(=O)N(CCC)C2C1NC(=S)N2/N=C/C=C/c1ccccc1OC (configuration not stated) ... > 100 µM
O=C1OCC2=C1C(c1cccc(Br)c1)c1cc3c(cc1N2CCO)CCC3 (configuration not stated) ... 16 µM
O=c1c(/C=C/c2c(O)ccc3ccccc23)nnc2sc(-c3cccc(Br)c3)nn12 ... 31.9 µM
COc1cccc(C2=NC(C(C)C)CO2)c1 (configuration not stated) ... > 100 µM
Cn1ccc(C(=O)NCCN(CCNC(=O)c2ccn(C)c(=O)c2O)CCNC(=O)c2cccc(=O)n2O)c(O)c1=O ... > 100 µM
CN(C)CCCN1CCC2(CCC(C(C)(C)C)CC2)CC1 ... 17.3 µM
O=C(N[C@@H](c1ccc(Cl)c(Cl)c1)C1CNC1)c1ccc2cnccc2c1 ... 12.7 µM

* * *

# key: entry, value: TGI
- Test system: HOP-18 NSCLC
- experiment_notes: NCI tumour cell line growth inhibition, 48 h
measured_endpoint: TGI

COc1cc2c(c(OC)c1OC)-c1ccc(SC)c(=O)cc1C(NC=O)CC2 (stereo not drawn) ... > 100 µM
Cc1ccc(/C=C/C(=O)c2sc(-c3nc(C)c(C(=O)/C=C/c4ccc(C)cc4)s3)nc2C)cc1 ... > 100 µM
O=C1/C(=C/c2ccc3c(c2)OCO3)SC2C=Nc3ccccc3N12 (stereo not drawn) ... > 100 µM

* * *

- Test system: OVCAR-4 ovarian
- experiment_notes: NCI tumour cell line growth inhibition, 48 h
Consider the following compounds and their measured TGI readings.
measured_endpoint: TGI (µM)

O=[N+]([O-])/C(C(Cl)=C(Cl)Cl)=C(/Cl)Sc1ccccc1 ... 3.75
COc1cc(NS(C)(=O)=O)ccc1Nc1c2ccccc2nc2c1[nH]c1ccc(NC3OC(CO)C(O)C(O)C3O)cc12 (stereo not given) ... 4.66
[Cl][Hg][c]1cc[c]([Hg][Cl])o1 ... 4.24
Cc1[nH]nc(C(F)(F)F)c1N=NN1CCOCC1 ... 15.1

* * *

- System: XF 498 CNS
- experiment_notes: NCI tumour cell line growth inhibition, 48 h
measured_endpoint: TGI

Cc1cc(N(CCC#N)CCC#N)ccc1N=Nc1ccc(C(=O)O)cc1 ... > 100 µM
CC(OC(C)(C)C)[C@H](NC(=O)OCC(Cl)(Cl)Cl)C(=O)O (stereo partly drawn) ... > 100 µM
CCC[CH2][Sn]([Cl])([CH2]CCC)[CH2]CCC ... 0.202 µM
COc1ccc(CC2NCCc3c2[nH]c2ccccc32)cc1 (stereo not drawn) ... 66.5 µM
C/C(Cc1ccccc1)=N\NC(N)=S ... > 100 µM
Cc1ccccc1N1C(=O)C2C=CC(n3[nH]c(=O)n(Cc4ccccc4)c3=O)CC2C1=O (stereo not drawn) ... > 100 µM
COc1cc(NS(C)(=O)=O)ccc1Nc1c2ccccc2nc2c1[nH]c1ccc(NC3OC(CO)C(O)C(O)C3O)cc12 (stereo not drawn) ... 0.832 µM
COc1cccc(C2=NC(C(C)C)CO2)c1 (stereo not drawn) ... > 100 µM

* * *

- Test system: ACHN renal
- experiment_notes: NCI tumour cell line growth inhibition, 48 h
measured_endpoint: GI50

O=C(CSc1nc2ccccc2nc1-c1ccccc1)Nc1ccc(F)cc1 ... 41.9 µM
CNCC#Cc1c(F)ccc2c1/C(=C/c1[nH]ccc1OC)C(=O)N2 ... 0.053 µM
CCn1c2ccccc2c2cc(NC(=O)Nc3ccc([N+](=O)[O-])cc3C)ccc21 ... 3.56 µM

* * *

- System: T-47D breast
- experiment_notes: NCI tumour cell line growth inhibition, 48 h
Where a SMILES comes first, the peptide text is derived from it. The star is where a group is joined. Cbz = O=C(OCc1ccccc1)*
measured_endpoint: TGI

Nc1nc(SC/C=C/c2ccccc2)c2[nH]cnc2n1 ... > 100 µM
CC(C)(C)c1ccc(O)c(C(O)c2ccncc2)c1 (stereo not drawn) ... > 100 µM
O=C1/C(=C/c2ccccc2S)N=C(c2ccccc2)N1c1nc2c(Cl)cc(Cl)cc2s1 ... > 100 µM
CCn1c2ccccc2c2cc(NC(=O)Nc3ccc([N+](=O)[O-])cc3C)ccc21 ... 9.54 µM
Oc1cccnc1[Se] ... > 100 µM
O=C1CCCC1CN1CCCC1 (stereo not drawn) ... 10.8 µM
Nc1c(C(=O)Nc2ccncc2)sc2nc3c(cc12)CCCCCCCC3 ... 2.21 µM
O=C(O)CCC(NC(=O)OCc1ccccc1)C(=O)NC(Cc1cnc[nH]1)C(=O)O (stereo not drawn) (Cbz-Glu-His-OH; configuration not given here) ... > 100 µM

* * *

Reported log10 of TGI values follow for various molecules
- Tested on: SNB-75 CNS
- experiment_notes: NCI tumour cell line growth inhibition, 48 h
measured_endpoint: log10 of TGI (log10 of the value in µM)

COc1cc(Cn2c(-c3ccccc3)c(Cl)c3c2-c2oncc2CC3)cc(OC)c1 ... 1.88
COC(=O)C1=C(O)C(C(=O)OC)[C@]2(O)[C@H](C(=O)OC)[C@H]1C[C@@H](c1ccc(C(F)(F)F)cc1)[C@H]2C(=O)OC (stereo not given in full) ... 1.43
C=C(C)[C@@H]1CC[C@]2(C(=O)NC3CCCCC3)CC[C@]3(C)[C@H](CC[C@@H]4[C@@]5(C)CCCNC(C)(C)[C@@H]5CC[C@]43C)[C@@H]12 ... 0.48
Cc1nn(-c2ccc(Cl)cc2)c2nc3c(nc12)C(=O)c1ccccc1-3 ... 1.67
COc1cccc2c1C(=O)c1c(O)c3c(c(O)c1C2=O)C[C@](O)(C(=O)CO)C[C@H]3O[C@@H]1C[C@@H](NC(=O)CCCCCN(C)C2(c3ccc(F)cc3)CC3CCC2C3)[C@H](O)[C@@H](C)O1 (stereo not given in full) ... 1.05
NCc1ccccc1-c1c2nc(c(-c3ccccc3CN)c3ccc([nH]3)c(-c3ccccc3CN)c3nc(c(-c4ccccc4CN)c4ccc1[nH]4)C=C3)C=C2 ... 1.39
COc1cc2c3c(n(C)c(=O)c2cc1OC)-c1cc2c(cc1/C3=C\CN)OCO2 ... 1.78
COc1ccc2[nH]cc(C3(c4c[nH]c5ccc(OC)cc45)C(=O)Nc4ccc(F)cc43)c2c1 ... 0.92
